target: ASH1L PHD finger D2584A (human, UniProt Q9NR48 2579-2629, Substitution of D2584 with alanine)
Ends that are not written are not given here. Me3 = trimethyl on lysine side chain

binder: ARTK(Me3)QTARKSTG [histone H3K4me3 peptide (aa 1-12 of H3)]
units.label: µM
Kd: 4.6
